Reference source for all entries: PubChem BioAssay

# Tested on: Fibrinogen (Alexa647-labelled)
# ASSAY DETAILS: fibrinogen binders on compound microarrays, profiling panel, artefact control for SMM control-protein annotation, biochemical, small-molecule microarray, 635/667 nm fluorescence (AID 1131);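 note: z-score merges 667 nm fluorescence with per-spot signal-to-noise over triplicate slides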
# EXPERIMENTAL CONDITIONS: fibrinogen-A647 binding fluorescence, higher = more signal
READOUT: composite z-score
Could you respond with only the numeric value?

These solved cases illustrate the format of a correct answer.
| COMPOUND | SYSTEM | composite z-score |
| --- | --- | --- |
| O=C1[C@H]2[C@H]3[C@H](O)[C@H](O)CC(=NOC[C@@H](O)COCc4ccco4)[C@@H]3CC[C@H]2C(=O)N1C[C@@H]1CCCO1 | Fibrinogen (Alexa647-labelled) | -0.652 |
| COC(=O)[C@@H]1CC[C@H](C)[C@@H](c2ccc(C)cc2)N1C(=O)c1ccc(C=NOCC[C@@H]2C=C[C@H](OC(C)=O)[C@@H](COC(C)=O)O2)cc1 | Fibrinogen (Alexa647-labelled) | 0.316 |
| COC(=O)[C@@H]1CC[C@H](C)[C@@H](c2ccc(C)cc2)N1C(=O)c1ccc(C=NO[C@H](C)c2cn([C@@H]3COC[C@H]3O)nn2)cc1 | Fibrinogen (Alexa647-labelled) | 0.677 |
| C[C@H]1CC[C@H]2C(=O)OC(CO)CN2[C@@H]1c1ccc(Br)cc1 (stereo partly specified) | Fibrinogen (Alexa647-labelled) | 0.276 |
| C=CC[C@@H]1C=C[C@H](ON=C2[C@H]3CCn4c(=O)n(-c5ccccc5)c(=O)n4[C@H]3[C@H](O)[C@@H]3O[C@H]23)[C@@H](CO)O1 | Fibrinogen (Alexa647-labelled) | 0.626 |
| O=C1CCCC=C1C(CCc1ccccc1)OC(=O)c1ccc(Br)cc1 (stereo unspecified) | Fibrinogen (Alexa647-labelled) | -0.612 |
| CO[C@@H]1COC(=O)[C@@H](C)COC(=O)[C@@H](C)NC(=O)CC=C[C@@H]1C | Fibrinogen (Alexa647-labelled) | -1.27 |
| COc1ccc(COC(=O)NN=C2C[C@@H](O)[C@@H](O)[C@@H]3[C@@H]4C(=O)N(c5ccc(F)cc5F)C(=O)[C@@H]4CC[C@H]23)cc1 | Fibrinogen (Alexa647-labelled) | 0.89 |

*Q* Identify measured composite z-score associated with CCOC(=O)CCN1C(=O)[C@H]2[C@H]3[C@H](O)[C@H](O)CC(=NOCC(C)C)[C@H]3CC[C@H]2C1=O
*A* 0.416

*Q* Identify measured composite z-score associated with COC(=O)[C@H](C)NC(=O)CCC1CC(OC(=O)NCCc2ccc(F)cc2)CC2(CCCC(COC(=O)NCc3cccc(C(F)(F)F)c3)O2)O1 (stereo partly specified)
*A* 0.563
